// data source = ChEMBL document CHEMBL3988442

# maps each entry to its Percent Effect
Molecular target: AMP-activated protein kinase, AMPK (Homo sapiens) (UniProt P54646+O43741+P54619+Q9UGJ0+Q9Y478+Q13131+Q9UGI9)
Experiment: AMP-dependent Kinase enzyme assay. An in vitro enzyme assay that detects ADP turnover that is directly proportional to AMPK activity. This uses naive AMPK that is activated during the assay with MK-8722
Assay type: functional
Design: scale not given: direction of the effect not stated beside the values
Conditions: 30 µM
# unit: % | format: bare number

Solved entries:
# compound, Percent Effect / %
measured = [
    ("COCc1nc(CN2CCC3(CCCO3)CCC2=O)no1 (centres undefined)", -4.46),
    ("CCN(CC)C(=O)CCn1ncc2c(Cl)cccc21", 3.83),
    ("CCCc1noc(CCC(=O)N2CCCC2c2ccsc2)n1 (centres undefined)", 0.791),
]

Using the record for CCOCCN1CCN(Cc2nc(C3CC3)no2)CC1CC (centres undefined) , state its measured Percent Effect.
6.32

Name the recorded Percent Effect of the item `CC(C)Oc1ccc(CNC(=O)CC(F)(F)F)cc1F` in your answer.
-1.12

State, in one line, measured Percent Effect of c1ccc(-c2nc(CN3CCCC(Cn4cncn4)C3)no2)cc1 (centres undefined)
7.69

Determine from records and report Percent Effect for `Cc1noc(C)c1CN1C[C@@H]2COC[C@H](C(=O)N3CCCCO3)[C@@H]2C1`
8.79

Determine from records and report Percent Effect for CCC(C)CNc1ccc2oc(COC)nc2c1 (centres undefined)
-44.5

Report Percent Effect, nothing else, for this compound: `CCc1ncc2c(n1)CN(Cc1nc(C)c(C)o1)CC2`
-53

Consider the compound COCc1ccccc1CNc1cc(N2CCCC2CO)ncn1 (centres undefined) and give its recorded Percent Effect.
-4.12

Entry O=C(c1ccc(N2CCCC2)nn1)N1CCCC(n2cccn2)C1 (centres undefined) needs its Percent Effect filled in; supply it.
-3

Query Percent Effect for `O=C(Nc1cnccn1)[C@H]1COC[C@H]2CN(C3CCCC3)C[C@H]21`
-0.6

For CCc1nc(C2CCCN2C(=O)CCNS(C)(=O)=O)no1 (centres undefined) , write its Percent Effect.
-4.56

Read off the recorded Percent Effect for CN1CC(=O)N(c2ccccc2)CC12CCN(Cc1cccnc1)C2 (centres undefined)
0.129

Please report Percent Effect for the following compound: `Clc1ccc(OCCN2CCN(CCn3cncn3)CC2)cc1`
-3.56

Fill in Percent Effect for record Cc1cc(C)n(CC(C)CNC(=O)[C@@H](C)NC(=O)OC(C)(C)C)n1 (some centres undefined)
3.79
